# Experiment Summary: in vitro
# Condition Summary: African green monkey, PV CC50
Rule for this label: rule met means CC50 is less than 80 µg/mL; rule not met means CC50 is at least 80 µg/mL.

Please review the following examples before continuing.
> print(dat)
                           structure.smiles  classification
1  O=C(COc1ccc(Cl)cc1)N1CCN(c2ncnc3oc(Cc4ccc(F)cc4)nc23)CC1    rule not met
2  C[C@@]1(O)[C@H](O)[C@@H](CO)O[C@H]1n1ccc(N)nc1=O    rule not met
3  COCCN1CCN(c2nc(N)nc3oc(-c4ccc(F)cc4)nc23)CC1    rule not met
4  Nc1nc(N2CCN(C(=O)COc3ccc(Cl)cc3)CC2)c2nc(CCc3ccccc3)oc2n1    rule not met
5  Cc1nc(N2CCN(C(=O)COc3ccc(Cl)cc3)CC2)c2nc(-c3ccc(F)cc3)oc2n1    rule not met

Please let me know if CC(C)S(=O)(=O)n1c(N)nc2ccc(/C(=N/O)c3ccccc3)cc21 shows CC50 below 80 µg/mL.
rule not met

Please let me know if Nc1nc(N2CCN(C(=O)COc3ccc(Cl)cc3)CC2)c2nc(CCc3ccc(F)cc3)oc2n1 shows CC50 below 80 µg/mL.
rule met

Please let me know if Cc1nc(N2CCN(C(=O)COc3ccc(Cl)cc3)CC2)c2nc(-c3ccc(F)cc3)sc2n1 shows CC50 below 80 µg/mL.
rule not met

Please let me know if Nc1nc(N2CCN(C(=O)COc3ccc(Cl)cc3)CC2)c2nc(C3CC3)sc2n1 shows CC50 below 80 µg/mL.
rule not met

Please let me know if Nc1nc(N2CCN(C(=O)COc3ccc(F)cc3)CC2)c2nc(CCc3ccc(F)cc3)sc2n1 shows CC50 below 80 µg/mL.
rule met

Please let me know if CCOC(=O)c1nc(N2CCN(C(=O)Nc3cccc(C)c3)CC2)c2cc(-c3ccc(F)cc3)sc2n1 shows CC50 below 80 µg/mL.
rule met

Please let me know if NC(=O)Cc1nc(N2CCN(C(=O)COc3ccc(Cl)cc3)CC2)c2cc(-c3ccc(F)cc3)sc2n1 shows CC50 below 80 µg/mL.
rule not met

Please let me know if O=C(O)c1nc(N2CCN(C(=O)COc3ccc(Cl)cc3)CC2)c2cc(-c3ccc(F)cc3)sc2n1 shows CC50 below 80 µg/mL.
rule met
